Below is a list of entries, each paired with its recorded IC50 value.
# tested-target: T1, HLA-DPA1*01:03/DPB1*04:01 soluble heterodimer (human), P20036
# T1 chain 1: not shown
# T1 chain 2: not shown
# experiment-summary: FP competition with FITC probe, HLA-sDM, average
Answer in nM, number only, no unit symbol.

[in] Item IGINITRFQTLLA (modifications not checked) [S231-243] has what recorded IC50?
[out] 510

[in] Item CEFQFCNDPFLGVYYHK (modifications not checked) [S131-147] has what recorded IC50?
[out] 58

[in] Item CTFEYVSQPFLMDLEGK (modifications not checked) [S166-182] has what recorded IC50?
[out] 11

The record that follows has no IC50 shown yet.
[in] Item EKKYFAATKFEPLAARL (modifications not checked) [Positive control peptide … (unlabelled)] has what recorded IC50?
[out] 30

Recorded values, source patent US20260031189A1.
